Exercise: for every item that follows, state its recorded protein stability index.
B1: SPDEF (parent)
chain: FQELAGKELCAMSEEQFRQRSPLG

- Variants of: B1
- assay explanation: protein stability index of a GFP-peptide fusion (GPS, HEK-293T) (PSI 1-6); higher = more stable;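 also: lentivirally expressed fusions sorted by FACS into six bins by GFP to DsRed ratio, PSI derived from sequencing read proportions per bin multiplied by bin number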
- condition notes: c terminus: a fixed tail appended
I only need the number, thanks.

Recorded protein stability index (variant E3A ): 3.06

Recorded protein stability index (variant F17K ): 3.25

Recorded protein stability index (variant R20E ): 3.71

Recorded protein stability index (variant K7I ): 1.81

Recorded protein stability index (variant E8A ): 2.37

Recorded protein stability index (variant S21K ): 2.44

Recorded protein stability index (variant P22Y ): 2.2

Recorded protein stability index (variant E14L ): 2.3

Recorded protein stability index (variant A11I ): 1.87

Recorded protein stability index (variant P22W ): 1.75

Recorded protein stability index (variant A11N ): 2.91
